The measurements presented in this section are drawn from patent US10501502B2.

# Method summary: FP purification and fluorescence characterization in vitro (spectra, extinction coefficient, quantum yield)
# Type: physicochemical
# Cond: evolved APCα FPs, Table 4
Quantity kind: Extinction Coefficient

State the recorded Extinction Coefficient for this entry: R6-6: evolved APCα FP, SEQ ID NO: 7, with BV (protein, biliverdin chromophore; smRUFP Variant Polypeptide) MKTCEQRVKIATLLSENEKKIVDKASQDLWRRRPDLIAPGGIAFSQRERALCLRDYGWYLHLITFCLLAGDKGPIESIGLIGIREMYNSLGVPVPGMMESIRCLKEASLSLLDEEDAKETAPYFDYIIKAMS
190,000 M^−1 cm^−1

State the recorded Extinction Coefficient for this entry: R11-2: evolved APCα FP, SEQ ID NO: 12, with BV (protein, biliverdin chromophore; smRUFP Variant Polypeptide) MKTCEQRVNIATLLTENKKKIVDKASQDLWRRHPDLIAPGGIAFSQRDRALCLRDYGWYLHLITFCLLAGDKGPIESIGLISIREMYNSLGVPVPAMMESIRCLKEASLSLLEEEDANETAPYFDYIIKAMS
190,000 M^−1 cm^−1

State the recorded Extinction Coefficient for this entry: R7-7: evolved APCα FP, SEQ ID NO: 8, with BV (protein, biliverdin chromophore; smRUFP Variant Polypeptide) MKTCEQRVKIATLLSENKKKIVDKASQDLWRRHPDLIAPGGIAFSQRERALCLRDYGWYLHLITFCLLAGDKGPIESIGLIGIREMYNSLGVPVPGMMESIRCLKEASLSLLDEEDAKETAPYFDYIIKAIS
250,000 M^−1 cm^−1

State the recorded Extinction Coefficient for this entry: smURFP: small ultra-red fluorescent protein, SEQ ID NO: 13, homodimer, covalently attaches biliverdin (protein, homodimer; biliverdin chromophore; smRUFP Variant Polypeptide) MKTSEQRVNIATLLTENKKKIVDKASQDLWRRHPDLIAPGGIAFSQRDRALCLRDYGWFLHLITFCLLAGDKGPIESIGLISIREMYNSLGVPVPAMMESIRCLKEASLSLLDEEDANETAPYFDYIIKAMS
180,000 M^−1 cm^−1
